In this section, each of the molecules is paired with its reported % Phosphatase Activity (compared to DMSO) PRL-2.
biological target: recombinant PRL-2 (Homo sapiens); construct: 6xHis (N, cleaved yes); made in house; host or cells: E. coli One Shot BL21 Star; assay: In vitro phosphatase assay (DiFMUP hydrolysis), PRL-2; format: biochemical; settings: FDA-approved drug screen; compared to DMSO;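 note: PRL-2 activity read as DiFMUP hydrolysis after 20 min at room temperature with drug, enzyme first pre-reduced at 4 °C for 20 min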
Sequence (Q12974 whole entry): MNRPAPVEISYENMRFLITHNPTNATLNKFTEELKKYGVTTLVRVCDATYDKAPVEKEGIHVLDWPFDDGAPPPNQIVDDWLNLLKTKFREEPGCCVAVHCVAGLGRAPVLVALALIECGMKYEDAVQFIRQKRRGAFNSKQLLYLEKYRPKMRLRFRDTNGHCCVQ
Report as a plain number; the unit % is understood.

Please review the entries below; each comes with its answer.
molecule: CCC1(c2cnc[nH]2)Cc2ccccc2C1
units: %
value.measured: 109
--
molecule: CCN(CC)CCOC(=O)c1ccc(N)cc1 [Procaine]
units: %
value.measured: 94
--
molecule: COc1cc(OC)c(/C=C/S(=O)(=O)Cc2ccc(OC)c(NCC(=O)O)c2)c(OC)c1
units: %
value.measured: 86
--
molecule: CCC1(C)CC(=O)NC1=O (stereo not drawn) [Ethosuximide]
units: %
value.measured: 104
--
molecule: CC(C)C[C@H](NC(=O)[C@H](Cc1ccccc1)NC(=O)c1cnccn1)B(O)O
units: %
value.measured: 121

Which value of % Phosphatase Activity (compared to DMSO) PRL-2 has been reported for `C[C@@H]1C[C@H]2[C@@H]3CCC4=CC(=O)C=C[C@]4(C)[C@@]3(F)[C@@H](O)C[C@]2(C)[C@@]1(O)C(=O)CO` in the records?
94

Look at this molecule and give its reported % Phosphatase Activity (compared to DMSO) PRL-2. C[N+](C)(C)CC(O)CC(=O)O.[Cl-] (racemic) [DL-Carnitine HCl]
94

Given the molecule `Nc1nc2c(ncn2COCCO)c(=O)[nH]1` , what is its reported % Phosphatase Activity (compared to DMSO) PRL-2?
99

I would be grateful if you could share the reported % Phosphatase Activity (compared to DMSO) PRL-2 for Cc1ccc(Nc2nccc(N(C)c3ccc4c(C)n(C)nc4c3)n2)cc1S(N)(=O)=O.Cl [Pazopanib HCl] .
83

I'd like to know its % Phosphatase Activity (compared to DMSO) PRL-2. The molecule in question is C[C@@H]1C[C@H]2[C@@H]3CCC4=CC(=O)C=C[C@]4(C)[C@@]3(Cl)[C@@H](O)C[C@]2(C)[C@@]1(OC(=O)c1ccco1)C(=O)CCl [Mometasone furoate]
87

Quick one: % Phosphatase Activity (compared to DMSO) PRL-2 for Cl.NCCc1c[nH]c2ccc(O)cc12 [Serotonin HCl] ?
101
